Reference for the values: ChEMBL document CHEMBL1157539

tested on: Plasmodium falciparum; test: GSK_TCMDC: Inhibition of Plasmodium falciparum 3D7 in whole red blood cells, using parasite LDH activity as an index of growth. Test compounds present at 2uM; type: functional
Reported values of Inhibition for individual entries
Response body: numeric value in %, unit text excluded.

Some entries whose results are on file:
{"molecule": "CCNc1cc(C(=O)N[C@@H](Cc2ccccc2)[C@H](O)CNC(C)(C)CCCC(C)C)cc(N2CCCCS2(=O)=O)c1.O=CO", "numeric-readout": 98}
{"molecule": "O=C(/C=C/c1ccc(Cl)c(Cl)c1)NCCCCCN1CCC(NC(=O)Nc2ccc([N+](=O)[O-])cc2)CC1", "numeric-readout": 100}
{"molecule": "CC(C)(C)N1CCC(N(Cc2ccc(-c3ccc(C(F)(F)F)cc3)cc2)C(=O)Cn2c(CCc3cccc(F)c3F)cc(=O)c3cccnc32)CC1.O=C(O)C(O)C(O)C(=O)O", "numeric-readout": 100}
{"molecule": "CSc1ccc(CN2CCC(CNC(=O)c3cc(-c4ccccc4F)cs3)C2)cc1.O=C(O)C(F)(F)F (configuration not stated)", "numeric-readout": 90}

Inhibition lookup needed for COc1ccc(NC(=O)[C@H](Cc2ccccc2)Nc2cc(C)nc(NCCc3cccs3)n2)cc1.O=C(O)C(F)(F)F , thanks.
100

And the next one, O=C(/C=C/c1ccc(Cl)c(Cl)c1)NCCCCCN1CC[C@H](NC(=O)/C=C/c2ccccc2)C1 ?
93

And the next one, COc1ccc(Nc2nccc(N3CCC(NS(=O)(=O)c4ccc(NC(C)=O)cc4)C3)n2)cc1 (configuration not stated) ?
100

And the next one, CCN(CC)c1ccccc1CNC(=O)c1cc(Cl)c(N)cc1OC ?
97

And the next one, COc1ccc(-c2nc(NC(=O)Cc3cccc(OC)c3)sc2C)cc1 ?
100

And the next one, CNS(=O)(=O)Cc1ccc(Nc2nccc(Nc3cccc4c3cnn4C(=O)Nc3ccccc3)n2)cc1 ?
89

And the next one, OC(CNCc1ccccc1Oc1ccccc1)c1cccc(C(F)(F)F)c1 (configuration not stated) ?
100

And the next one, CCc1c(C)nc2nc(Cc3cccc(F)c3)nn2c1N1CCN(c2ccccn2)CC1 ?
100
